Where do these numbers come from? They come from the supplement of paper PMC10201428.

Listed here are sequences together with their documented relative integration efficiency (log2).
Tested on: VchCAST RNA-guided transposition machinery (E. coli BL21(DE3) host, lacZ target)
Test: relative integration efficiency (T-LR orientation) vs wild-type transposon end (log2 (normalized fold change)); transposon end mutated: left end; higher = more efficient transposition

residue codes | system tested | relative integration efficiency (log2)
AATGTTGTTGATGCAACCATAAAGTGATATTTAATCAACCATAAAGTGATATTTAACTTAACCACAACAACCATATATTGATATCTCACAAAACAACCATAAGTTGATATTTTTGTGAATCGAGTATTTCAGCAAAACTACTGCAGTAAGAA | VchCAST RNA-guided transposition machinery (E. coli BL21(DE3) host, lacZ target) | -0.257
AATGTTGTTGATGCAACCATAAAGTGATATTTAATAATTATTTATAATCCTACCAGGCCAACACCCCACCAACGCGCGGTCGCGAGACACCCCACCAACGCCTGGTCGCGGGGGTGTCCGATCTGATTTCAGCAAAACTACTGCAGTAAGAA | VchCAST RNA-guided transposition machinery (E. coli BL21(DE3) host, lacZ target) | -5.08

---

Test system: VchCAST RNA-guided transposition machinery (E. coli BL21(DE3) host, lacZ target)
Experiment: relative integration efficiency (T-LR orientation) vs wild-type transposon end (log2 (normalized fold change)); transposon end mutated: left end; higher = more efficient transposition

residue codes | relative integration efficiency (log2)
AATGTTGTTGATGCAACCATAAAGTGATATTTAATAACTTCGTATAATGTATACTATACGAAGTTATCAACCATATATTGATATCTCACAAAACAACCATAAGTTGATATTTTTGTGAATCGAGTATTTCAGCAAAACTACTGCAGTAAGAA | -2.57
AATGTTGTTGATGCAACCATAAAGTGATATTTAATCAACCATATATTGATATCTCACAAAACAACCATAAGTTGATATTTTTGTGAATCGAGTATTTCAGCAAAACTACTGCAGTAAGAAAGTTACTTCGTGGTATGGGAGGATCAAGGAGC | -0.405
AATGTTGTTGATGCAACCATAAAGTGATATTTAATAATCAACCATAAAGTGATATTTAACTTAACCACAACCATATATTGATATCTCACAAAACAACCATAAGTTGATATTTTTGTGAATCGAGTATTTCAGCAAAACTACTGCAGTAAGAA | -4.25
AATGTTGTTGATGCAACCATATATTGATATCTCATAATTATTTATAATCAGCAACTTAACCACAAAACAACCATAAAGTGATATTTAACAAAAGTTGGTATTCAACTATAAAATGTGAATCGAGTATTTCAGCAAAACTACTGCAGTAAGAA | -1.75
AATGTTGTTGATGCAACCATAAAGTGATATTTATTTATGGCTAGCTCAGTCCTAGGTACAATGCTAGCAACCATATATTGATATCTCACAAAACAACCATAAGTTGATATTTTTGTGAATCGAGTATTTCAGCAAAACTACTGCAGTAAGAA | -2.71
AATGTTGTTGATGCAACCATAAAGTGATATTTAATAATTATTTATAATCAGCAACTTAACCACAAAACAACCATATATTGATATCTCCAACCATAAGTTGATATTTTTGTGAATCGAGTATTTCAGCAAAACTACTGCAGTAAGAAAGTTAC | -1.44
AATGTTGTTGATACAACCATAAAATGATAATTACACCCATAAATTGATAATTATCACACCCATAAATTGATATTGCTGTGAATCGAGTATTTCAGCAAAACTACTGCAGTAAGAAAGTTACTTCGTGGTATGGGAGGATCAAGGAGCCAATA | 3.47
AATGTTGTTGATGCAACCATAAAGTGATATTTAATAATTATTTATAATCAGCAACTTAACCACAAAATGTGAATCGAGTATTTCAGCAAAACTACTGCAGTACAACCATATATTGATATCTCACAAAACAACCATAAGTTGATATTTTAGAA | -3.82
AATGTTGTTGATGCAACCATATATTGATATCTCATAATTATTTATAATCAGCAACTTAACCACAAAACAACCATAAGTTGATATTTTACAAAAGTTGGTATTCAACTATAAAATGTGAATCGAGTATTTCAGCAAAACTACTGCAGTAAGAA | -1.84
AATGTTGTTGATGCAACCATAAAGTGATATTTAATAATTATTTATACGACTACCAGGCCAACACCCCACCAACGCGCGGTCGCGAGACACCCCACCAACGCCTGGTCGCGGGGGTGTCCGATCTGATTTCAGCAAAACTACTGCAGTAAGAA | -4.47
AATGTTGTTGATGCAACCATAAAGTGATATTTAATAATTATTTATAATCAGCAACTTAACCACAAAACAACCATATATTGATATCTCACAAAACAACCATAAGTTGATATTTTGTGAATCGAGTATTTCAGCAAAACTACTGCAGTAAGAAA | 0.169
AATGTTGTTGATGCAACCATAAAGTGATATTTAATAATGCGGGCGCCGACTACCAGGCCAACACCCCACCAACGCGCGGTCGCGAGACACCCCACCAACGCCTGGTCGCGGGGGTGTCCGATCTGATTTCAGCAAAACTACTGCAGTAAGAA | -5.9
AATGTTGTTGATGCAACCATCCCTGTCGCGGGCCGCCGGCGGGCGCCGACTACCAGGCCAACACCCCACCAACGCGCGGTCGCGAGACACCCCACCAACGCCTGGTCGCGGGGGTGTCCGATCTGATTTCAGCAAAACTACTGCAGTAAGAA | -9.26
AATGTTGTTGATGCAACCATAAAGTGATATTTAATAATTATTTATCAACCATAAAGTGATATTTAACCAACCATATATTGATATCTCACAAAACAACCATAAGTTGATATTTTTGTGAATCGAGTATTTCAGCAAAACTACTGCAGTAAGAA | -2.57
AATGTTGTTGATGCAACCATAAAGTGATATTTAGACGTCCTTAACTCTGGCAGGGAGTTCAAGGGACCAACCATATATTGATATCTCACAAAACAACCATAAGTTGATATTTTTGTGAATCGAGTATTTCAGCAAAACTACTGCAGTAAGAA | -3.47
AATGTTGTTGATGCAACCATAAAGTGATATTTAATAATTATTTATAATCAGCAACTTAACCACAAAACAACCATATATTGATATCTCACAAAACAACCATAAGTTGATCGGGGGTGTCCGATCTGATTTCAGCAAAACTACTGCAGTAAGAA | -1.32
AATGTTGTTGATGCAACCATAAAGTGATATTTACGTCTGTACAGCGCACAGAAGCTGGGAACTCGGCCAACCATATATTGATATCTCACAAAACAACCATAAGTTGATATTTTTGTGAATCGAGTATTTCAGCAAAACTACTGCAGTAAGAA | -3.36

---

System: VchCAST RNA-guided transposition machinery (E. coli BL21(DE3) host, lacZ target)
Experiment: relative integration efficiency (T-RL orientation) vs wild-type transposon end (log2 (normalized fold change)); transposon end mutated: right end (5 bp flank + 75 bp right end); higher = more efficient transposition

residue codes | relative integration efficiency (log2)
ACATTTGTTGATACAACCATAAAATGATAATTACACCACTAAATTGATAATTATCACACCCATAAATTGATATTGCCTCTGATCATAGTCAGACCAACATTGCTACGACCCGTATTCGCACCGACAC | -1.78
ACATTTGTTGATACAACCATATATTGATATCTCCACCCATAAATTGATATTGCTCACAACCATAAAGTGATATTTACTCTGATCATAGTCAGACCAACATTGCTACGACCCGTATTCGCACCGACAC | -0.6
ACATTTGTTGATACAACCATAAAATGATAATTACACCCATAAATTGATAATTATCAAAACACCCATAAATTGATATTGCCTCTGATCATAGTCAGACCAACATTGCTACGACCCGTATTCGCACCGA | -0.514

---

Test system: VchCAST RNA-guided transposition machinery (E. coli BL21(DE3) host, lacZ target)
Test: relative integration efficiency (T-RL orientation) vs wild-type transposon end (log2 (normalized fold change)); transposon end mutated: left end; higher = more efficient transposition
Hi, to clarify the labels: yes (1) covers relative integration efficiency (log2) from -4 upward, no (0) covers anything below -4.

residue codes | system tested | classification
AATGTTGTTGATGCACCCATAAATTGATATTGCATAATTATTTATAATCAGCAACTTAACCACAAAACAACCATATATTGATATCTCACAAAAGTTGGTATTCAACTATAAAATGTGAATCGAGTATTTCAGCAAAACTACTGCAGTAAGAA | VchCAST RNA-guided transposition machinery (E. coli BL21(DE3) host, lacZ target) | yes (1)
AATGTTGTTGATGCACCCATAAATTGATATTGCATAATTATTTATAATCAGCAACTTAACCACAAAACACCCATAAATTGATAATTAACAAAAGTTGGTATTCAACTATAAAATGTGAATCGAGTATTTCAGCAAAACTACTGCAGTAAGAA | VchCAST RNA-guided transposition machinery (E. coli BL21(DE3) host, lacZ target) | yes (1)
AATGTTGTTGATGCAACCATAAAGTGATATTTAATAATTATTTATAATCAACCATATATTGATATCTCACAAAACAACCATAAGTTGATATTTTTGTGAATCGAGTATTTCAGCAAAACTACTGCAGTAAGAAAGTTACTTCGTGGTATGGG | VchCAST RNA-guided transposition machinery (E. coli BL21(DE3) host, lacZ target) | no (0)
AATGTTGTTGATGCAACCATATATTGATATCTCATAATTATTTATAATCAGCAACTTAACCACAAAACAACCATAAAATGATAATTAACAAAAGTTGGTATTCAACTATAAAATGTGAATCGAGTATTTCAGCAAAACTACTGCAGTAAGAA | VchCAST RNA-guided transposition machinery (E. coli BL21(DE3) host, lacZ target) | yes (1)
AATGTTGTTGATGCAACCATAAAATGATAATTAATAATTATTTATAATCAGCAACTTAACCACAAAATAATTATCATTTTATGGTTGACAAAACAACCATAAAATGATAATTATGTGAATCGAGTATTTCAGCAAAACTACTGCAGTAAGAA | VchCAST RNA-guided transposition machinery (E. coli BL21(DE3) host, lacZ target) | no (0)
